Tested on: LoVo-Dox
Assay Overview: SRB colorimetric cell growth inhibition assay, LoVo-Dox (MDR)
Format: cell-based
Protocol Conditions: Homo sapiens, LOVO-DOX; GI=growth inhibition; read-out: GI50 LOVO-DOX
Rule: GI50 below 10 µM gives rule met. Equal to or above 10 µM gives rule not met.

Past entries and their recorded results:
* COc1cc(-c2c3n(c4c(=O)oc5cc(OC(=O)[C@@H](N)COCc6ccccc6)c(OC)cc5c24)CCc2c-3cc(OC)c(OC)c2OC(=O)[C@@H](N)COCc2ccccc2)ccc1OC(=O)[C@@H](N)COCc1ccccc1 | rule met
* COc1cc2c(cc1OC)-c1c(-c3ccc(OC(=O)[C@H](C)NC(=O)OC(C)(C)C)c(OC)c3)c3c4cc(OC)c(OC(=O)[C@H](C)NC(=O)OC(C)(C)C)cc4oc(=O)c3n1CC2 | rule met
* CCCCCCCC(=O)Oc1ccc(-c2c3n(c4c(=O)oc5cc(OC(=O)CCCCCCC)c(OC)cc5c24)CCc2cc(OC(=O)CCCCCCC)c(OC)cc2-3)cc1OC | rule not met

Now, please, on to the next compound.
For this compound, is GI50 lower than 10 µM? COc1cc(-c2c3c4cc(OC)c(OC(=O)[C@@H](N)C(C)C)cc4oc(=O)c3n3ccc4cc(OC(=O)[C@@H](N)C(C)C)c(OC)cc4c23)ccc1OC(=O)[C@@H](N)C(C)C
rule met

These data points were gathered from patent US7396837B2.
